From: the supplement of paper PMC9170038

Tested on: MS2 coat protein
method-summary: apparent KD of MS2 coat protein; higher = weaker reporter binding
measurement-setup: Eterna round: R107; input ligand: arginine 13.2 mM
Entries and their apparent KD of MS2 coat protein values follow.
Use nM as the unit, but write only the number.

# count of solved cases: 4
-- ask Quick check: apparent KD of MS2 coat protein of UGGUAUGUAGGAAGGAGCGCAUACUUCACAUGAGGAUCACCCAUGUCAAGACGUGAGUCAGUGCAGGUAGGUCGCCUAGUUAUGA [Same State - Arginine B (Freestyle 21)] ?
-- reply 31.2

-- ask And then GGGCGCGUGGACCGGCGUGCUCCGCUCCGUCGAGGACCGGUACGGCCGCCACUCGACAUGAGGAUCACCCAUGUGCGAGCUCGCG [#1 Exclusion - Tryptophan A Attempt #15 (HarryS)] , what is it?
-- reply 16.2

-- ask And then AGUACACGAACUGAUACCAGCCGGACAUGAGGAUCACCCAUGUCCUACCUCUGUUCGGUUGGCCCUUGGCAGCAGUUCGUGUACA [Omei Theo B SS A v9] , what is it?
-- reply 40.5

-- ask And then UGACAUUGCUGCGAUACCAGACAUGAGGAUCACCCAUGUGCCAAAUAAACGUACAUAAAUGUCCCUUGGCAGCGCAGCAAUGUCU [MAT - Exclusion Theophlline B - Mod of Eli - D29] , what is it?
-- reply 44.9

New cases:
-- ask Quick check: apparent KD of MS2 coat protein of UUCAGACAUGAGGAUCACCCAUGUACUGAAGGAGCGGAUAAAUAUCCAGGUAGGUCGCAGUAUUGAGGGUCUACUUCCAGUCUUU [Reoruser] ?
-- reply 8.42
